# measured-target: TPα (Homo sapiens)
# Construct: expressed in transfected cells
# Sequence (P21731 whole entry): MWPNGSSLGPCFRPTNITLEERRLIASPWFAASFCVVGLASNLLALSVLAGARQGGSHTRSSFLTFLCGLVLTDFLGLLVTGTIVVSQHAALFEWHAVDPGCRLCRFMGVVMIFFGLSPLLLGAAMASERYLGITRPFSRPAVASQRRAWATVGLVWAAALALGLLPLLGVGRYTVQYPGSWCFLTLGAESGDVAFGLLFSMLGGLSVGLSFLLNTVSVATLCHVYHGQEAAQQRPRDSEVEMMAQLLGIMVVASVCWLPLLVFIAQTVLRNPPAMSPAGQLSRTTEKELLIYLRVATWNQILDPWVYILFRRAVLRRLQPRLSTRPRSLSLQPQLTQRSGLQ
# assay-explanation: U46619-induced [Ca2+]i mobilization in HEK.TPα cells
# Type: cell-based
# assay-setup: antagonist 1 μM; 1 μM U46619; % of agonist-induced response in vehicle-treated cells; read-out: Percentage of Control, TPα, 1 μM
Strictly below 80% in remaining activity at 1 µM: yes. Otherwise: no.

Ask: Dear colleague, could you confirm whether remaining activity at 1 µM of COc1ccc(-c2cccc(Oc3ccc(C(=O)N4CC(O)C4)cc3S(=O)(=O)NC(=O)NC(C)(C)C)c2)cc1 [NTP23] falls below 80%? Thanks.
Reply: yes

Ask: Record COc1ccc(-c2cccc(Oc3ccncc3S(=O)(=O)NC(=O)NC(C)(C)C)c2)cc1 [NTP31] : is its remaining activity at 1 µM strictly below 80%?
Reply: yes

Ask: Given COc1ccc(-c2cccc(Oc3ccc(-c4cn[nH]c4)cc3S(=O)(=O)NC(=O)NC(C)(C)C)c2)cc1 [NTP18] , is recorded remaining activity at 1 µM strictly lower than 80%?
Reply: no

Ask: Just wondering, is remaining activity at 1 µM of COc1ccc(-c2cccc(Oc3ccc(C(=O)Nc4ncco4)cc3S(=O)(=O)NC(=O)NC(C)(C)C)c2)cc1 [NTP24] below 80%?
Reply: no

Ask: Hello, is remaining activity at 1 µM of the following compound strictly smaller than 80%? COc1ccc(-c2cccc(Oc3ccc(-c4ccoc4)cc3S(=O)(=O)NC(=O)NC(C)(C)C)c2)cc1 [NTP20]
Reply: yes

Ask: Determine whether this compound shows remaining activity at 1 µM lower than 80% (ties excluded): COc1ccc(-c2cccc(Oc3ccc(C(=O)NCc4ccccn4)cc3S(=O)(=O)NC(=O)NC(C)(C)C)c2)cc1 [NTP11]
Reply: yes

Ask: Below 80% on remaining activity at 1 µM? Entry COc1ccc(-c2cccc(Oc3ccc(C(=O)N4CCC4)cc3S(=O)(=O)NC(=O)NC(C)(C)C)c2)cc1 [NTP17]
Reply: no

Ask: Dear colleague, could you confirm whether remaining activity at 1 µM of COc1ccc(-c2cccc(Oc3ccc(C#N)cc3S(=O)(=O)NC(=O)NC(C)(C)C)c2)cc1 [NTP4] falls below 80%? Thanks.
Reply: yes

Ask: API: query returns whether the compound falls strictly under 80% in remaining activity at 1 µM. Query: COc1ccc(-c2cccc(Oc3ccc(C(F)(F)F)cc3S(=O)(=O)NC(=O)NC(C)(C)C)c2)cc1 [NTP3]
Reply: yes

Ask: Find out if reported remaining activity at 1 µM for Cc1ccc(Nc2ccc([N+](=O)[O-])cc2S(=O)(=O)NC(=O)NC(C)(C)C)cc1 [BM573, reference compound] is less than 80%
Reply: yes

Ask: I wonder whether COc1ccc(-c2cccc(Oc3cc[n+]([O-])cc3S(=O)(=O)NC(=O)NC(C)(C)C)c2)cc1 [NTP41] has remaining activity at 1 µM below 80%. Can you tell?
Reply: no

Ask: Criterion: remaining activity at 1 µM strictly below 80%. Is it met by COc1ccc(-c2cccc(Oc3ccc(C(=O)NCC4CC4)cc3S(=O)(=O)NC(=O)NC(C)(C)C)c2)cc1 [NTP16] ?
Reply: no

Ask: Lab note: confirm whether the reported remaining activity at 1 µM for this compound is below 80%, equality not counting. compound: COc1ccc(-c2cccc(Oc3ccc(Br)cc3S(=O)(=O)NC(=O)NC(C)(C)C)c2)cc1 [NTP7]
Reply: yes

Ask: Dear reviewer, please state whether CNC(=O)c1ccc(Oc2cccc(-c3ccc(OC)cc3)c2)c(S(=O)(=O)NC(=O)NC(C)(C)C)c1 [NTP10] has remaining activity at 1 µM strictly beneath 80%.
Reply: no

Ask: Strictly below 80%: is that where remaining activity at 1 µM of COc1ccc(-c2cccc(Oc3ccc(C(=O)O)cc3S(=O)(=O)NC(=O)NC(C)(C)C)c2)cc1 [NTP5] sits?
Reply: no

Ask: Hello, I'm reviewing records and need to know if remaining activity at 1 µM of CCn1cc(-c2ccc(Oc3cccc(-c4ccc(OC)cc4)c3)c(S(=O)(=O)NC(=O)NC(C)(C)C)c2)cn1 [NTP6] is below 80%. Could you check?
Reply: no

Ask: # TODO verify remaining activity at 1 µM < 80% strictly for this compound: COc1ccc(-c2cccc(Oc3ccc(C(N)=O)cc3S(=O)(=O)NC(=O)NC(C)(C)C)c2)cc1 [NTP13]
Reply: no

Ask: Is the reported remaining activity at 1 µM for COc1ccc(-c2cccc(Oc3ccc(-c4ccncc4)cc3S(=O)(=O)NC(=O)NC(C)(C)C)c2)cc1 [NTP29] strictly below 80%?
Reply: no

Ask: Input COc1ccc(-c2cccc(Oc3ccc([N+](=O)[O-])cc3S(=O)(=O)NC(=O)NC(C)(C)C)c2)cc1 [TP20] ; condition: remaining activity at 1 µM strictly below 80%. Does it hold?
Reply: yes

Ask: API: query returns whether the compound falls strictly under 80% in remaining activity at 1 µM. Query: COc1ccc(-c2cccc(Oc3ccc(C(=O)N(C)C)cc3S(=O)(=O)NC(=O)NC(C)(C)C)c2)cc1 [NTP2]
Reply: no

Ask: Does this compound meet the criterion remaining activity at 1 µM < 80%? COc1ccc(-c2cccc(Oc3ccc(C(=O)NC4COC4)cc3S(=O)(=O)NC(=O)NC(C)(C)C)c2)cc1 [NTP12]
Reply: no

Ask: Bench note: check whether CCNC(=O)c1ccc(Oc2cccc(-c3ccc(OC)cc3)c2)c(S(=O)(=O)NC(=O)NC(C)(C)C)c1 [NTP28] shows remaining activity at 1 µM below 80%
Reply: no

Ask: Here's an entry: COc1ccc(-c2cccc(Oc3ccc(C(=O)N4CCOCC4)cc3S(=O)(=O)NC(=O)NC(C)(C)C)c2)cc1 [NTP22] . Is its remaining activity at 1 µM below 80%?
Reply: no

Ask: Determine if COc1ccc(-c2cccc(Oc3ccc(C(C)=O)cc3S(=O)(=O)NC(=O)NC(C)(C)C)c2)cc1 [NTP9] shows remaining activity at 1 µM strictly lower than 80%.
Reply: no

Ask: Strictly below 80%: is that where remaining activity at 1 µM of COCCNC(=O)c1ccc(Oc2cccc(-c3ccc(OC)cc3)c2)c(S(=O)(=O)NC(=O)NC(C)(C)C)c1 [NTP14] sits?
Reply: no

Ask: Lab note: confirm whether the reported remaining activity at 1 µM for this compound is below 80%, equality not counting. compound: COc1ccc(-c2cccc(Oc3ccc(Cl)cc3S(=O)(=O)NC(=O)NC(C)(C)C)c2)cc1 [NTP30]
Reply: yes

Ask: Here's an entry: COc1ccc(-c2cccc(Oc3ccc(F)cc3S(=O)(=O)NC(=O)NC(C)(C)C)c2)cc1 [NTP8] . Is its remaining activity at 1 µM below 80%?
Reply: yes

Ask: Please state whether remaining activity at 1 µM is below 80% for COc1ccc(-c2cccc(Oc3ccc(-c4c(C)noc4C)cc3S(=O)(=O)NC(=O)NC(C)(C)C)c2)cc1 [NTP19]
Reply: no

###

# measured-target: TPβ (Homo sapiens, UniProt P21731)
# Construct: expressed in transfected cells
# Sequence (P21731 1-407 isoform P21731-2): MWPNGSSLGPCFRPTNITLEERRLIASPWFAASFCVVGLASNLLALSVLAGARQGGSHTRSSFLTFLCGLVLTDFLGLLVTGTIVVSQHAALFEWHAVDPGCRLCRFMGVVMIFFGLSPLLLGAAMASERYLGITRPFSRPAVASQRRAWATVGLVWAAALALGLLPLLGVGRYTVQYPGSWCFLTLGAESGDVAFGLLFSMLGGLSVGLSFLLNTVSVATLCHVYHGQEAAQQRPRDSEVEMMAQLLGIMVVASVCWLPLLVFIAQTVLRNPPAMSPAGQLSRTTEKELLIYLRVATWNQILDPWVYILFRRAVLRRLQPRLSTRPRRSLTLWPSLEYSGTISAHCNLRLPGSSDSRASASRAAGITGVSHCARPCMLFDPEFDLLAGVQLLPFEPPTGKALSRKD
# assay-explanation: U46619-induced [Ca2+]i mobilization in HEK.TPβ cells
# Assay type: cell-based
# assay-setup: antagonist 1 μM; 1 μM U46619; % of agonist-induced response in vehicle-treated cells; read-out: Percentage of Control, TPβ, 1 μM
# Excerpt: An appropriate functional test for the evaluation of the agonistic and/or antagonistic potency of the compounds of the invention is the determination of calcium flux. Both TPα and TPβ are coupled to the G-protein Gαq. […] Calcium can be measured using a molecule characterized by the covalent combination of a Ca^2+ chelating group and a fluorophore group. […] Binding of Ca^2+ produces a wavelength shift in either the excitation or emission fluorescence spectra or a change in the emission intensity. […]
Assignment: determine reported remaining activity at 1 µM for the given compounds.
Quick note: give the figure in %, leave out the unit.

// assay TPβ (Homo sapiens, UniProt P21731), entry COc1ccc(-c2cccc(Oc3ccc(S(C)(=O)=O)cc3S(=O)(=O)NC(=O)NC(C)(C)C)c2)cc1 , remaining activity at 1 µM value = 36.4

The reported TPβ (Homo sapiens, UniProt P21731) remaining activity at 1 µM of COc1ccc(-c2cccc(Oc3ccc(C#N)cc3S(=O)(=O)NC(=O)NC(C)(C)C)c2)cc1 is 22.5

Given the compound CCNC(=O)c1ccc(Oc2cccc(-c3ccc(OC)cc3)c2)c(S(=O)(=O)NC(=O)NC(C)(C)C)c1 and test system TPβ (Homo sapiens, UniProt P21731), the measured remaining activity at 1 µM is 110

// compound COc1ccc(-c2cccc(Oc3ccc(Cl)cc3S(=O)(=O)NC(=O)NC(C)(C)C)c2)cc1 , assay TPβ (Homo sapiens, UniProt P21731), remaining activity at 1 µM value: 46.5

Value sought: remaining activity at 1 µM, system TPβ (Homo sapiens, UniProt P21731), item CNC(=O)c1ccc(Oc2cccc(-c3ccc(OC)cc3)c2)c(S(=O)(=O)NC(=O)NC(C)(C)C)c1 . Result: 96

Observed remaining activity at 1 µM on TPβ (Homo sapiens, UniProt P21731), entry COc1ccc(-c2cccc(Oc3cc[n+]([O-])cc3S(=O)(=O)NC(=O)NC(C)(C)C)c2)cc1 , equals 72.2

Bench note, TPβ (Homo sapiens, UniProt P21731): entry COc1ccc(-c2cccc(Oc3ccc(C(=O)N4CCC4)cc3S(=O)(=O)NC(=O)NC(C)(C)C)c2)cc1 , its remaining activity at 1 µM = 51.1

Summary line: COc1ccc(-c2cccc(Oc3ccc(Br)cc3S(=O)(=O)NC(=O)NC(C)(C)C)c2)cc1 , TPβ (Homo sapiens, UniProt P21731), reported remaining activity at 1 µM = 49
